Listed below: growth values for each entry.
test system: M14 melanoma; experiment: NCI-60 one-dose screen, 48 h (100 = growth as untreated, 0 = no growth, -100 = all killed); conditions: 10 µM
About 83,000 compounds went through this panel and 20% of them were active in at least one assay; those are over-represented in the sample as a whole.
readout_name: growth (%)

molecule: COc1cc2c(cc1OC)/C(=C\c1sc(Nc3ccc(O)cc3)nc1O)C(C(=O)O)=N2
readout_name: growth
measured_number: 4.93

molecule: O=C(NCCCCC(c1ccc(F)cc1)c1ccc(F)cc1)NCCCc1cccnc1
readout_name: growth
measured_number: -20.2

molecule: COc1ccc(CN2[C@@H](C(=O)NCc3ccc(C(=O)NO)cc3)Cc3c([nH]c4ccccc34)[C@@H]2C)cc1
readout_name: growth
measured_number: 23.3

molecule: CC(C)(C)c1ccc(NCc2cn(-c3ccc(C(=O)O)cc3)nc2-c2ccc(C#N)cc2)cc1
readout_name: growth
measured_number: 30.1

molecule: CC(=C(c1ccc(OCCN2CCCCCC2)cc1)c1ccc(OCCN2CCCCCC2)cc1)c1ccc(Cl)cc1
readout_name: growth
measured_number: -57.9

molecule: N#Cc1c(NC(=O)c2ccc(C(F)(F)F)cc2C(F)(F)F)sc2c1CCC(=O)C2
readout_name: growth
measured_number: -50.3

molecule: C=C1CCC2C3(C)COC(c4cc(F)cc(F)c4)OC3CCC2(C)C1C/C=C1/C(=O)OCC1O (stereo not drawn)
readout_name: growth
measured_number: -64.6

molecule: CC[C@]12C=CCN3CC[C@@]4(c5cc(C#CCNc6ccc(C)c(Nc7nccc(-c8cccnc8)n7)c6)c(OC)cc5N(C)[C@H]4[C@@](O)(C(=O)OC)[C@@H]1OC(C)=O)C32 (stereo partly drawn)
readout_name: growth
measured_number: 45.1

###

system: MDA-MB-435 melanoma; experiment: NCI-60 one-dose screen, 48 h (100 = growth as untreated, 0 = no growth, -100 = all killed); conditions: 10 µM
The panel holds about 83,000 compounds, 20% with a hit somewhere; the sample as a whole holds those more often.
Catalogue of growth values
readout_name: growth (%)

compound: O=C(O)CCCCCCCCCCN1C(=O)/C(=C/c2cnc(-c3ccccc3)s2)SC1=S
target_system: MDA-MB-435 melanoma
measured_number: 87

compound: Cn1cc(/C=N/Nc2ccnc3cc(Cl)ccc23)c2ccccc21
target_system: MDA-MB-435 melanoma
measured_number: -83.5

compound: O=C(CSc1nnc(-c2c[nH]c3ccccc23)n1-c1ccccc1)c1ccccc1
target_system: MDA-MB-435 melanoma
measured_number: 87.2

compound: CCC(C)S(=O)(=O)c1oc(-c2ccc(C)cc2)nc1S(=O)(=O)c1ccccc1 (stereo not drawn)
target_system: MDA-MB-435 melanoma
measured_number: -98.2

compound: O=C(c1ccc([N+](=O)[O-])c([N+](=O)[O-])c1O)n1[nH]c(=O)c2ccccc2c1=O
target_system: MDA-MB-435 melanoma
measured_number: 53.7

compound: COc1cc2c(cc1OC)CN(CCCCOc1cc(O)c3c(=O)cc(-c4ccccc4)oc3c1)CC2
target_system: MDA-MB-435 melanoma
measured_number: 67.5

compound: O=C(Cn1nc(-c2ccccc2)ccc1=O)NNC(=S)NC1CCCCC1
target_system: MDA-MB-435 melanoma
measured_number: 110

compound: CCCCCc1ccc(S(=O)(=O)Nc2cc(-c3csc(N(C)C(C)=O)n3)ccc2N2CCN(C)CC2)cc1
target_system: MDA-MB-435 melanoma
measured_number: 25.4

compound: Cc1ccc(-c2nc(Nc3ccccc3C(=O)O)c3ccccc3n2)cc1
target_system: MDA-MB-435 melanoma
measured_number: 23.4

compound: O=C(c1ccc(Cl)cc1)C1[C@H](c2ccccc2Br)[C@@H](c2ccccc2)NC12C(=O)Nc1ccccc12 (stereo partly drawn)
target_system: MDA-MB-435 melanoma
measured_number: -47.3

compound: C/C(=C\c1ccc(O)cc1O)c1ccc2ccc(O)cc2[o+]1
target_system: MDA-MB-435 melanoma
measured_number: 21.4

compound: COC(=O)C[C@](O)(CCCC(C)(C)O)C(=O)O[C@H]1C(OC)=C[C@@]23CCC(=O)N2CCc2cc4c(cc2[C@@H]13)OCO4
target_system: MDA-MB-435 melanoma
measured_number: 104

compound: CC(=O)Nc1ccc(-c2cn(-c3cccc(C(=O)Nc4ccc(Cl)c(C(F)(F)F)c4)c3)nn2)cn1
target_system: MDA-MB-435 melanoma
measured_number: -70.6

compound: O=C1CCC(N2Cc3c(C#CCCCNC(=O)c4ccc(NC(=O)[C@@H]5NC6(CCCCC6)[C@@]6(C(=O)Nc7cc(Cl)ccc76)[C@H]5c5cccc(Cl)c5F)cc4)cccc3C2=O)C(=O)N1 (stereo partly drawn)
target_system: MDA-MB-435 melanoma
measured_number: 61.6

compound: O=C(CS(=O)(=O)c1oc(-c2ccc(Cl)cc2)nc1S(=O)(=O)c1ccccc1)N1CCCC1
target_system: MDA-MB-435 melanoma
measured_number: -41.8

compound: Cc1ccc(/C(N)=N/c2sc(-c3ccccc3)nc2-c2ccccc2)cc1
target_system: MDA-MB-435 melanoma
measured_number: 79.6

compound: O=S(=O)(Nc1ncccn1)c1ccc(-n2c(-c3ccc(Br)cc3)nc(-c3ccccc3)c2-c2ccccc2)cc1
target_system: MDA-MB-435 melanoma
measured_number: 42.7

compound: C=C1CCC2C3(C)COC(c4cccc(F)c4)OC3CCC2(C)C1CC(O)C1=CCOC1=O (stereo not drawn)
target_system: MDA-MB-435 melanoma
measured_number: 57.7

###

tested on: M14 melanoma; assay: NCI-60 one-dose screen, 48 h; conditions: 10 µM
About 83,000 compounds went through this panel and 20% of them were active in at least one assay; those are over-represented in the sample as a whole. Activity calls are given as the source filed them. The calls were made as follows: active = growth percent below 10; inactive = the rest.
Outcome codes: true (1) = active, false (0) = inactive

smiles_repr: COc1ccc(C(C)=C(c2ccc(OCCCN(C)C)cc2)c2ccc(OCCCN(C)C)cc2)cc1
class: true (1)
//
smiles_repr: CN1CCN(c2ccc(Nc3nc(NCCCNC(=O)c4ccccc4)c4sccc4n3)cc2)CC1
class: false (0)
//
smiles_repr: N#Cc1c(NC(=O)c2ccc(C(O)(C(F)(F)F)C(F)(F)F)cc2)sc2c1CCC(=O)C2
class: true (1)
//
smiles_repr: O=c1oc2ccc(-c3ccc(F)cc3F)cc2c(=O)n1-c1ccc(F)c(Cl)c1
class: false (0)
//
smiles_repr: CNC(=O)c1cc(-c2ccc(NC(=O)Nc3ccc(C)cc3)cc2)nc2cccnc12
class: false (0)

###

tested on: OVCAR-5 ovarian; test: NCI-60 one-dose screen, 48 h (100 = growth as untreated, 0 = no growth, -100 = all killed); conditions: 10 µM
The panel holds about 83,000 compounds, 20% with a hit somewhere; the sample as a whole holds those more often.
Lab note: cut-off is 60%. Strictly less in growth is met. Exactly 60% or more is not met.

compound: CN1CCN(c2ccc(Nc3nc(N4CCN(S(=O)(=O)c5ccc(Cl)cc5)CC4)c4sccc4n3)cc2)CC1
class: met
//
compound: COc1ccc(CN2[C@H](C(=O)NCCCCCCC(=O)NO)Cc3c([nH]c4ccccc34)[C@H]2C2CC2)cc1
class: met
//
compound: CN1CCCN(Cc2ccc(C(=O)Nc3cccc(Nc4ccc5cc(O)ccc5n4)c3)cc2C(F)(F)F)CC1
class: not met
//
compound: CN(C(=O)c1ccc(C(C)(C)C)cc1)c1sc2c(c1C#N)CCC(=O)C2
class: met
//
compound: O=c1c2ccccc2nc(COc2ccccc2)n1/N=C/c1ccc(N2CCCC2)cc1
class: not met
//
compound: CC[C@]12C=CCN3CC[C@@]4(c5cc(C#CCNc6ccc(C)c(Nc7nccc(-c8cccnc8)n7)c6)c(OC)cc5N(C)[C@H]4[C@@](O)(C(=O)OC)[C@@H]1OC(C)=O)C32 (stereo partly drawn)
class: not met
//
compound: N#Cc1c(NC(=O)c2ccc(C(F)(F)F)cc2)sc2c1CCC(=O)C2
class: met
//
compound: COc1cc2c3c(n(CCCn4ccnc4)c(=O)c2cc1OC)-c1nc2c(cc1C3=O)OCO2
class: met

###

system: BT-549 breast; assay: NCI-60 one-dose screen, 48 h (100 = growth as untreated, 0 = no growth, -100 = all killed); conditions: 10 µM
This is part of a sample that, as a whole, favours compounds with a hit. Of some 83,000 tested, about 20% had one in any assay.

smiles_repr: Cc1cc(C)nc(SCC(=O)Nc2ccc(S(N)(=O)=O)cc2)n1
growth / %: 132
--
smiles_repr: CC1(C)CC[C@]2(C(=O)N3CCOCC3)CC[C@]3(C)C(=CC[C@@H]4[C@@]5(C)CC[C@H](NCO)C(C)(C)[C@@H]5CC[C@]43C)[C@H]2C1
growth / %: -92.2
--
smiles_repr: COC[C@@H](CC(C)C)N=C1NC(=O)/C(=C/c2ccc3ncoc3c2)N1
growth / %: 2.39
--
smiles_repr: O=C(Nc1ccc(I)cc1F)c1cc(-c2ccc(F)cc2F)ccc1O
growth / %: -12.5
--
smiles_repr: Nc1nnc(-c2c[nH]c3ncccc23)c(-c2c[nH]c3ccc(Br)cc23)n1
growth / %: 38.6
--
smiles_repr: Cc1nc(Nc2nc(C)c3ccc(OCCN4CCOCC4)cc3n2)[nH]c(=O)c1C
growth / %: -74.2
--
smiles_repr: O=C(Nc1ccccc1)Nc1nc2ccccc2s1
growth / %: 89.6
--
smiles_repr: CCOC(=O)c1c(CSc2ccccc2)n(C)c2cc(CN(C)C)c(O)c(CN(C)C)c12
growth / %: 63.7
